Sourced from patent US9309242B2

Parameter BAF3-FGFR3 (MIN IL3) pIC50: see the listing below.
- target: Ba/F3-FGFR3-transfected cells (Homo sapiens, UniProt P22607)
- Construct: BAF3-FGFR3 (MIN IL3) pIC50; other: minus IL3
- Sequence (P22607 whole entry, change not shown): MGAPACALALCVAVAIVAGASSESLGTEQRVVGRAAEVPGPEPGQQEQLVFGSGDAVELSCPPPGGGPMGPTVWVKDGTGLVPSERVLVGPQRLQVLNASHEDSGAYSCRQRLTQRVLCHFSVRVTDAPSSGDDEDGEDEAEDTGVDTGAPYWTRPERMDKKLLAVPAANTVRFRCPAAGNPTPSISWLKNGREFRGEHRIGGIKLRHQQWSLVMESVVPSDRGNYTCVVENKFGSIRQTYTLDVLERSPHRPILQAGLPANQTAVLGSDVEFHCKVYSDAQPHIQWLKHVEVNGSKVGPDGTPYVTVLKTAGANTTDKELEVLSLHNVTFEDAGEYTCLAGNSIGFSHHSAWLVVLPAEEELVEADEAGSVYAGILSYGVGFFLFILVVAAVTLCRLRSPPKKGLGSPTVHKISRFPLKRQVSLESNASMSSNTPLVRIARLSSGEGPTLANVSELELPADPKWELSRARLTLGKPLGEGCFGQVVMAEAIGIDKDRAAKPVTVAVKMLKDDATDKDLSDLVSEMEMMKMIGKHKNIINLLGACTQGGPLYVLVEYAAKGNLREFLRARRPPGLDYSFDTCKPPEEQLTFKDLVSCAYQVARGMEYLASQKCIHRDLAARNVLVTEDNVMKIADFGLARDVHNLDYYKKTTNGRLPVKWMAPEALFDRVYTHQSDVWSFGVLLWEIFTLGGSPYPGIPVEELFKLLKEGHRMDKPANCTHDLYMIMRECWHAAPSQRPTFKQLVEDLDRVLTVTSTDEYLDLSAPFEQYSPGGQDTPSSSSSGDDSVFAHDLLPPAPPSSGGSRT
- assayName: Ba/F3-FGFR3 (minus IL3) cellular proliferation assay, Alamar Blue
- Format: cell-based
Format: numeric value only, no unit, no commentary.

COc1cc(/N=c2\ccc3ncc(-c4cnn(CC(C)(C)O)c4)nc3n2CC2CCC(=O)N2)c(F)c(OC)c1 (stereo not shown) [Compound 286]; 7.66
COc1cc(OC)c(F)c(N(CCCO)c2ccc3ncc(-c4cnn(C)c4)nc3n2)c1F (single isomer, unassigned) [Compound 16]; 7.8
COc1cc(OC)c(F)c(N(Cc2ncc[nH]2)c2ccc3ncc(-c4cnn(Cc5ncc[nH]5)c4)nc3n2)c1 [Compound 100]; 7.56
COc1cc(OC)c(F)c(N(CC(O)COC(C)C)c2ccc3ncc(-c4cnn(C)c4)nc3n2)c1F (stereo not shown) [Compound 62]; 8.10
COc1cc(OC)cc(N(CC2CC(O)C(=O)N2)c2ccc3ncc(-c4cnn(C)c4)nc3n2)c1 (stereo not shown) [Compound 271]; 6.27

Turning to the following compound.
Requested field: BAF3-FGFR3 (MIN IL3) pIC50. Item: COc1cc(OC)c(F)c(N(Cc2ncco2)c2ccc3ncc(-c4cnn(C)c4)nc3n2)c1 [Compound 177]
7.10

---

Parameter melting point: see the listing below.
API: value field is a number in °C; no unit string.

COc1cc(/N=c2\ccc3ncc(-c4cnn(CC(C)(C)O)c4)nc3n2CC(C)(C)O)c(F)c(OC)c1 (single isomer, unassigned); 154

Turning to the following molecule.
Requested field: melting point. Item: COc1cc(OC)c(F)c(N(CC2COC(=O)N2)c2ccc3ncc(-c4cnn(C)c4)nc3n2)c1 (single isomer, unassigned)
202

---

- target: FGFR1 (h) (Homo sapiens, UniProt P11362)
- Sequence (P11362 22-822): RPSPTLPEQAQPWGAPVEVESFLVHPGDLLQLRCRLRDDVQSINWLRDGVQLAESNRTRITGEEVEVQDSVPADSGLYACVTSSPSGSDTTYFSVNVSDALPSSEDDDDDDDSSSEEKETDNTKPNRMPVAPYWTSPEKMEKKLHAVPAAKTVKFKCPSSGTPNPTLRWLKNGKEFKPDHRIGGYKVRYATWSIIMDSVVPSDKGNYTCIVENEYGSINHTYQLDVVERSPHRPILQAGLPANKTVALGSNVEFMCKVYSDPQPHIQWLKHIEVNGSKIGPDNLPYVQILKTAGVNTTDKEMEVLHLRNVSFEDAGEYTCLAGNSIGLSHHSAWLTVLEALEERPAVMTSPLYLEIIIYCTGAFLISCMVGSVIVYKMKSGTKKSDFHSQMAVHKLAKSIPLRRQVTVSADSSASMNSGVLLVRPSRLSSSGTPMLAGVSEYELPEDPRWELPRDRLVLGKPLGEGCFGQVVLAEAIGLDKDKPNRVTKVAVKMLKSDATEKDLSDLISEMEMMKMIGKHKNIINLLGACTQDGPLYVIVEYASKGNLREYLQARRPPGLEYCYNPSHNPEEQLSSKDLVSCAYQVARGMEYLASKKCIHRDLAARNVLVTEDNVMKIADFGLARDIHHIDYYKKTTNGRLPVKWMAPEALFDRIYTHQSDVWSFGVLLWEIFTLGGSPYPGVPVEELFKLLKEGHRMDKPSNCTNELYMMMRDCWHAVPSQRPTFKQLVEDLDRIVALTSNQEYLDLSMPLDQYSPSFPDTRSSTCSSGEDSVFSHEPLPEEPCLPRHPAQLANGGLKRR
- assayName: FGFR1 (enzymatic assay), TR-FRET
- Assay type: biochemical
- testContext: average values if tested multiple times, read-out: FGFR 1 pIC50 (converted)
Parameter IC50: see the listing below.
API: value field is a number in nM; no unit string.

COc1cc(OC)c(F)c(/N=c2\ccc3ncc(-c4cnn(C)c4)nc3n2CC(O)COC(C)C)c1F (stereo not drawn) [Compound 64]; 0.776

Requested field: IC50. Item: COCC(O)CN(c1ccc2ncc(-c3cnn(C)c3)nc2n1)c1c(F)c(OC)cc(OC)c1F (stereo not drawn) [Compound 50]
1.74

Requested field: IC50. Item: COc1cc(OC)c(F)c(N(CC(O)COC(C)C)c2ccc3ncc(-c4cnn(C)c4)nc3n2)c1 (single isomer, unassigned) [Compound 78]
2.4

Requested field: IC50. Item: COc1cc(/N=c2\ccc3ncc(-c4cnn(C)c4)nc3n2Cc2ccnn2C)c(F)c(OC)c1 [Compound 114]
0.933

Requested field: IC50. Item: COc1cc(OC)c(F)c(N(CC(O)COC(C)C)c2ccc3ncc(-c4cnn(C)c4)nc3n2)c1F (stereo not drawn) [Compound 63]
3.72

Requested field: IC50. Item: COc1ccc(Cl)c(/N=c2\ccc3ncc(-c4cnn(C)c4)nc3n2CC2CCC(=O)N2)c1Cl (single isomer, unassigned) [Compound 89]
93.3

---

- target: Ba/F3-FGFR3-transfected cells (Homo sapiens, UniProt P22607)
- Construct: BAF3-FGFR3 (MIN IL3) pIC50; other: minus IL3
- assayName: Ba/F3-FGFR3 (minus IL3) cellular proliferation assay, Alamar Blue
- Type: cell-based
Parameter BAF3-FGFR3 (MIN IL3) pIC50: see the listing below.
Format: numeric value only, no unit, no commentary.

COc1cc(OC)c(F)c(N(Cc2c(C)noc2C)c2ccc3ncc(-c4cnn(C)c4)nc3n2)c1; 6.29

Requested field: BAF3-FGFR3 (MIN IL3) pIC50. Item: COc1cc(/N=c2\ccc3ncc(-c4cnn(C)c4)nc3n2CCN2CCOCC2)c(F)c(OC)c1
7.21
